Where do the numbers come from? From the nanobody polyreactivity screen of Harvey et al. (2022).

# test-details: yeast display, Sf9 membrane polyspecificity reagent, FACS + sequencing; frameworks hold sequencing errors
experimental-endpoint: polyreactivity (PSR sort gate)

QVQLVESGGGLVQAGGSLRFSCAASGSIYRNNAIGWYRQAPGKERELVAAITSTGTGTYYADSVKGRFTISRDNAKNTVYFQMNSLKPEDTAVYYCAVDDDFEFGYWGQGTQVTVSS; low polyreactivity
QVQLVESGGGLVQAGGSLRLSCAASGRIFSRYAMGWYRQAPGKERELVAAIRWSGGRTYYADSVKGRFTISRDNAKNTVYLQMNSLKPEDTAVYYCAKYRYTVAGYNYWGQGTQVTVSS; high polyreactivity
QVQLVESGGGLVQAGGSLRISSAASGSTFSRYAMGWYRQAPGKERELVAAISWRGGRTYYADSVKGRFTISRDNAKNTVYLQMNSLKPEDTAVYYCNAVSSFTSPRYDYWGQGTQVTVSS; high polyreactivity
QVQLVESGGGLVQAGGSLRLSCAPSGFTFGDYAMGWYRQAPGKERELVAAISWSGSNTYYADSVKGRFTLSRDNAKNTVYLQMNSLKPEDTAVYYCNADYDPEDMDYWGQGTQVTVSS; low polyreactivity
QVQLVESGGGLVQAGGSLRLSCAASGFIFLGKAMGWYRQAPAKERELVAAISSGGSTYADSVKGRFTISSDNAKNTVYLQMYSLKPEDTAVYYFAVDRAFRAQNYHEYYYWGQGTQVTVSS; low polyreactivity
QVQLLESGGGLVQAGGSLRLSCAASGFIFAKNAMGWYRKAPGKERELVAAISASGGRTYYADSVKGRFTISRDNAKNTVYLQMNSLKPEDTAVYYCAARRDGRSGSYNYWGQGTQVTVSS; high polyreactivity
QVHLVESGGGLVQAGGSLRLSCAASGSIFAYYAMGWYRQAPGKEWEVVAAINWRVGRTYYADSVNGRFTISRDNAKNTVYLQMNSLKPEDTAVYYCAAVYRNQYRGSRFDYWGQGTQVTVSS; high polyreactivity
QVQLVESGGGLVQAGGSLRLSCAASGFTFGSYAMGWYRQAPGKERELVAAISTSGDTTYYADSVKGRFTISRDNAKNTVYLQMNSLKPEDTAVYYCAAYDWGWPYTLIPFYYWGQGTQVTVSS; low polyreactivity

Summary for this sequence, QVQLVESGGGLVQAGGRLRLSCAASGRTMGWYRQAPGKERELVAAISSGGGSTYYADSVKGRFTISRDNAKNTVYLQMNSLKPEDTAVYYCARTTIAQLHSIVAPHDYWGQGTQVTVSS : polyreactivity (PSR sort gate) is low polyreactivity

Per the records, this sequence ( QVQLVESGGGLVQAGGSLRLSCAASGSTFPKNAKGWYRQAPGKERELVAAINTGGSTYYADSVKGRFTISRDNAKNTVYLQINSLKPEDTAVYYCAARDNYHRDVGHPYDYWGQGTQVTVSS ) has polyreactivity (PSR sort gate) equal to low polyreactivity

Reported polyreactivity (PSR sort gate) ( QVQLVESGGGLVQAGGSLRLSCADSGSIFIANAMGWYRPAPGKERELVAAIDSGGSTNYADSVKGRFTSSRDNAKNTVYLQMNSLKPEDTAVYYCAADGTLTAPGGDYWGQGTQVTVSS ) = high polyreactivity
